Where do the numbers come from? From paper PMC9352680.

# target or system: T1, PUF4 RNA-binding domain (Saccharomyces cerevisiae, UniProt P25339 537-888)
# T1 sequence: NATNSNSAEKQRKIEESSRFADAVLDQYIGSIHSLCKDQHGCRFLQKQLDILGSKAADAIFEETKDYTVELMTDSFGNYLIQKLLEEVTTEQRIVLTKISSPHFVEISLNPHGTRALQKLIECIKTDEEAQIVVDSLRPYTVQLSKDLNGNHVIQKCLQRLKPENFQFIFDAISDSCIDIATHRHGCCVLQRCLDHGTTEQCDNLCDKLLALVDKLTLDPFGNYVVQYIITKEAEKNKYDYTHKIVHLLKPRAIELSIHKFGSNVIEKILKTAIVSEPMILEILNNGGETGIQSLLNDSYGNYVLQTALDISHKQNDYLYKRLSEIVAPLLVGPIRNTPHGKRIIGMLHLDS
# assay: Mg; RNA-MaP; 20 mM Na-HEPES pH 7.4, 30 mM KOAc, 0.75 mM MgCl2, 0.1% Tween-20, 5% glycerol, 0.1 mg/mL BSA, 2 mM DTT; 25 C; 0.0125-409.6 nM protein
# cond: tags: N-His6-TEV cleaved; C-SNAP kept, Cy3B-labelled; label: tethered on chip by stalled RNA polymerase
endpoint label: Kd (nM)
Give just the number in nM; leave the unit off.

# example entries with known answers
binder	unit	Kd
UCUCUUCUUGUACCCUUUAUAUAUCUCUU (ssRNA) [Ie_S1_P3E.2_K3.1_C3.2_H3.1_[+4CCCTT]_A3.1_F3.1_T3.2]	nM	20.6
Id_ii_S2_P3E.3_K3.2_C3.2_[C-2A]_[T-1G]_H3.2_A3.1_F3.1_T3.2_[T9A]_[A10T] (ssRNA) RNA: UUUGAUUAAUAUGAUAUCGUUCUUUCUAGUAUAUAUAAUUUCUUUCUCGAUAUCAUAUUAAUCUUU	nM	199

What does the data say about its Kd? Entry: UCUCUUCGUAUAUUAUUAAUUCUCUU (ssRNA) [Id_ii_S1_P5E.3_K5.2_C5.2_[T-1G]_H5.2_A5.1_F5.1_T5.2_[T11A]_[A12T]]
26.5
